# Kd per record follows
Target: T1, Recombinant Human GFRα-1/GDNF Rα-1 Fc Chimera (human, UniProt P56159 25-429)
T1 construct: Purchased Fc chimera; It was captured on protein A in Biacore and coated on the plate in ELISA; also called GFRα1-Fc; recombinant human GFRα1-Fc chimera, carrier-free; not shown: Fc part of a purchased Fc chimera
T1 sequence (looked up): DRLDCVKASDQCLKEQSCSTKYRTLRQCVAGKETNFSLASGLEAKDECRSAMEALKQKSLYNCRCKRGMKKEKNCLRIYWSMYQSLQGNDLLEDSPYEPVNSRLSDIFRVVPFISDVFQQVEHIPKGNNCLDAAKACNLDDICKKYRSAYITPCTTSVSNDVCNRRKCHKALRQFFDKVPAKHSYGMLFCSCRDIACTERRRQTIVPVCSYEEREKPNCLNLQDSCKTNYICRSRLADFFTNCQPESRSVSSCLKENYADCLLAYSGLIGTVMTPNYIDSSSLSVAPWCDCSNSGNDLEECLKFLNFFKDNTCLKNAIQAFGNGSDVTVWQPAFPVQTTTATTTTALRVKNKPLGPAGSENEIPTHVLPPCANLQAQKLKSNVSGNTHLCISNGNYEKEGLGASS
Test: Biacore (SPR), GFRα-1; 4 C sample of the 4-week stability comparison
EXPERIMENTAL_READOUT: Kd (nM)

BINDER | READOUT_UNITS | NUMERIC_VALUE
CHO-Δ31-GDNF (SEQ ID NO: 8) (ligand, N-glycosylated at N49 (numbering of mature GDNF), Expressed in CHO cells; also called CHO-Δ31-GDNFv; WT CHO Δ31-GDNFv) RGQRGKNRGCVLTAIHLNVTDLGLGYETKEELIFRYCSGSCDAAETTYDKILKNLSRNRRLVSDKVGQACCRPIAFDDDLSFLDDNLVYHILRKHSAKRCGCI | nM | 0.029
E. Coli-WT-GDNF (SEQ ID NO: 3) (ligand, Expressed in E. coli, not glycosylated; also called WT E. coli GDNF; WT-E. coli GDNF) MSPDKQMAVLPRRERNRQAAAANPENSRGKGRRGQRGKNRGCVLTAIHLNVTDLGLGYETKEELIFRYCSGSCDAAETTYDKILKNLSRNRRLVSDKVGQACCRPIAFDDDLSFLDDNLVYHILRKHSAKRCGCI | nM | 0.064
CHO-Δ31-N38Q-D95E-GDNF (SEQ ID NO: 9) (ligand, N-glycosylated at N49 (numbering of mature GDNF), Expressed in CHO cells; also called CHO-Δ31-N38Q-D95E-GDNFv; GDNF variant 2) RGQRGKQRGCVLTAIHLNVTDLGLGYETKEELIFRYCSGSCDAAETTYDKILKNLSRNRRLVSEKVGQACCRPIAFDDDLSFLDDNLVYHILRKHSAKRCGCI | nM | 0.03
CHO-Δ31-N38Q-K84A-R88K-R90K-D95E-GDNF (SEQ ID NO: 12) (ligand, N-glycosylated at N49 (numbering of mature GDNF), Expressed in CHO cells; also called Δ31-N38Q-KAKKE; GDNF variant 3) RGQRGKQRGCVLTAIHLNVTDLGLGYETKEELIFRYCSGSCDAAETTYDKILANLSKNKRLVSEKVGQACCRPIAFDDDLSFLDDNLVYHILRKHSAKRCGCI | nM | 0.029
